System: OVKATE (Ovarian Carcinoma)
ASSAY OVERVIEW: combination Emax (second highest fraction inhibited in the dose matrix, 72 h); higher = more inhibition; extreme values may be limits of the assay
compounds and their reported combination Emax
Simply state the number, no unit and no words.

CCN(CCO)CCCOc1ccc2c(Nc3cc(CC(=O)Nc4cccc(F)c4)[nH]n3)ncnc2c1 [AZD2811] + C[C@@H]1COCCN1C2=NC(=NC(=C2)C3(CC3)[S@](=N)(=O)C)C4=C5C=CNC5=NC=C4 [AZD6738] (first compound max 1 µM, 7x7, partner max 10 µM)    0.344
CC1(C)CCC(CN2CCN(c3ccc(C(=O)NS(=O)(=O)c4ccc(NCC5CCOCC5)c([N+](=O)[O-])c4)c(Oc4cnc5[nH]ccc5c4)c3)CC2)=C(c2ccc(Cl)cc2)C1 [Venetoclax] + COc1cc(Nc2ncc3c(n2)-c2ccc(Cl)cc2C(c2c(F)cccc2OC)=NC3)ccc1C(=O)O [Alisertib] (first compound max 1 µM, 7x7, partner max 10 µM)    0.311

GET combination Emax where system = OVKATE (Ovarian Carcinoma) and item = CC1(C)CCC(CN2CCN(c3ccc(C(=O)NS(=O)(=O)c4ccc(NCC5CCOCC5)c([N+](=O)[O-])c4)c(Oc4cnc5[nH]ccc5c4)c3)CC2)=C(c2ccc(Cl)cc2)C1 [Venetoclax] + C1CN(CCC1(C(=O)N[C@@H](CCO)C2=CC=C(C=C2)Cl)N)C3=NC=NC4=C3C=CN4 [Capivasertib] (first compound max 1 µM, 7x7, partner max 3 µM)
0.199

---

Test system: NCI-H835 (Other Solid Carcinomas)
ASSAY OVERVIEW: Bliss excess, mean over the matrix (fraction); higher = more synergy
Catalogue of Bliss excess values
Response field accepts a number only; no unit should be typed.

CN(CCO)CC[C@H](CSc1ccccc1)Nc1ccc(S(=O)(=O)NC(=O)c2ccc(N3CCC([C@@H](O)c4ccccc4-c4ccc(Cl)cc4)CC3)cc2)cc1S(=O)(=O)C(F)(F)F [AZD4320] + Nc1ccn([C@@H]2O[C@H](CO)[C@@H](O)C2(F)F)c(=O)n1 [Gemcitabine] (first compound max 1 µM, 7x7, partner max 0.3 µM)    0.0682
CC(=O)c1c(C)c2cnc(Nc3ccc(N4CCNCC4)cn3)nc2n(C2CCCC2)c1=O [Palbociclib] + Cn1cnc2c(F)c(Nc3ccc(Br)cc3Cl)c(C(=O)NOCCO)cc21 [Selumetinib] (first compound max 10 µM, 7x7, partner max 10 µM)    -0.0551

Now take the following compound into account.
Answer briefly: Bliss excess recorded on NCI-H835 (Other Solid Carcinomas) for COc1cccc(OCCCN)c1-c1cc(Nc2cnc(C#N)cn2)n[nH]1 [Prexasertib] + CCc1c2c(nc3ccc(O)cc13)-c1cc3c(c(=O)n1C2)COC(=O)[C@]3(O)CC [SN-38] (first compound max 1 µM, 7x7, partner max 0.3 µM)
-0.0014

---

This listing pairs compounds with measured Bliss excess.
System: TK (B-Cell Non-Hodgkin's Lymphoma)
ASSAY OVERVIEW: Bliss excess, mean over the matrix (fraction); higher = more synergy
Give the figure by itself; no unit, no explanation.

Cc1cc2ncnn2cc1Nc1ncc2c(n1)n(C1CCOCC1)c(=O)n2C [AZD7648] + CCN(CCO)CCCOc1ccc2c(Nc3cc(CC(=O)Nc4cccc(F)c4)[nH]n3)ncnc2c1 [AZD2811] (first compound max 10 µM, 7x7, partner max 1 µM)    0.0132

Note down Bliss excess recorded for CN(CCO)CC[C@H](CSc1ccccc1)Nc1ccc(S(=O)(=O)NC(=O)c2ccc(N3CCC([C@@H](O)c4ccccc4-c4ccc(Cl)cc4)CC3)cc2)cc1S(=O)(=O)C(F)(F)F [AZD4320] + CCN(CCO)CCCOc1ccc2c(Nc3cc(CC(=O)Nc4cccc(F)c4)[nH]n3)ncnc2c1 [AZD2811] (first compound max 1 µM, 7x7, partner max 1 µM)
0.129

Provide Bliss excess value for the following compound: Cc1cc2ncnn2cc1Nc1ncc2c(n1)n(C1CCOCC1)c(=O)n2C [AZD7648] + C[C@@H]1COCCN1C2=NC(=NC(=C2)C3(CC3)[S@](=N)(=O)C)C4=C5C=CNC5=NC=C4 [AZD6738] (first compound max 10 µM, 7x7, partner max 10 µM)
-0.0185
